Tested on: PfSIP2 AP2 domain 1 (GST-tagged)
Assay: gcPBM binding intensity (ln(normalized median fluorescence intensity)); higher = stronger DNA binding
Whole data set: some 25,000 sequences, median “ln(normalized median fluorescence intensity)” near 7.1, cut for the highest 2% near 10. Shown is part of a subset that was picked to be rich in the highest values.

{"columns": ["biosequence", "gcPBM binding intensity (ln)"],
 "data": [
  ["AATATTGCACCATTTTGTACATAATATATTCAAATA [XGTACX_site475]", 10.7],
  ["ATATGACATAAAACATGTACATGTTCATAAATATAT [XGTACX_site1923]", 7.07],
  ["TAATCATTTTAGCTTACACACAAAATTTTGTTATAA [CACACA_site2939]", 6.93],
  ["AGTGATACTAATTTTTGTACGCATAAAAGAATATTC [XGTACX_site6055]", 6.97],
  ["TACAACAATTTTTGCACACACCAAAACATAAAATAA [CACACA_site4964]", 7.52]
]}

====

# key: entry, value: gcPBM binding intensity (ln)
Test system: PfSIP2 AP2 domain 1 (GST-tagged)
Test: gcPBM binding intensity (ln(normalized median fluorescence intensity)); higher = stronger DNA binding
Over roughly 25,000 sequences, “ln(normalized median fluorescence intensity)” has its median near 7.1; the highest 2% begin near 10. This excerpt belongs to a sample that is enriched for the highest values.
measurement.label: gcPBM binding intensity (ln)

{"columns": ["biosequence", "measurement.label", "value.reported"],
 "data": [
  ["AACTCATAGCGGTGTGCACACAAAAAATTAAAAAAA [CACACA_site3033]", "gcPBM binding intensity (ln)", 8.94],
  ["CTCATAGTTGGGTGCACACAAAAAATTAAAAAAATA [CACACA_site3032]", "gcPBM binding intensity (ln)", 12.3],
  ["TTACGAATTACATATTGTACATATGCACAATTTTAA [XGTACX_site6802]", "gcPBM binding intensity (ln)", 7.4],
  ["TTATTTATGAGGGTGACACACAAAAGAGTGTTAAGA [CACACA_site277]", "gcPBM binding intensity (ln)", 6.75],
  ["TTTATATCATTTCTTAAAAAAAAGGAGGTAATAGAC [TGCATGCA_negctrl_site555]", "gcPBM binding intensity (ln)", 8.44],
  ["TTTTCATATTATAGTGCACACAAAAATATATATATG [CACACA_site8929]", "gcPBM binding intensity (ln)", 10.8],
  ["ATATGGTGATATAGGTGTACATTTTGATGCTTATTT [XGTACX_site4283]", "gcPBM binding intensity (ln)", 6.95],
  ["AATATTACAATTTGGTGTACAGGTGCACATGCCTCA [XGTACX_site1730]", "gcPBM binding intensity (ln)", 11.5],
  ["ATTATATATATTTATGCACACAAAATATATTATATA [CACACA_site9244]", "gcPBM binding intensity (ln)", 7.56],
  ["ATGGCATAAATATATGCACACACAAAAAAAAAAAAA [CACACA_site7902]", "gcPBM binding intensity (ln)", 7.06],
  ["TTATTTTTAATATCGGTGCAACAAAAAGGAAAAGAT [GTGCAC_site9482]", "gcPBM binding intensity (ln)", 9.64],
  ["ATTCACAAATATATGGTGCATAATATATATATATAT [GTGCAC_site9674]", "gcPBM binding intensity (ln)", 10.6],
  ["TATAAAAGTGGACACACACACATATATATATATATA [CACACA_site4673]", "gcPBM binding intensity (ln)", 9.47],
  ["AACTCATAGGAGTGTGCACACAAAAAATTAAAAAAA [CACACA_site8996]", "gcPBM binding intensity (ln)", 9.24],
  ["ATTAATTTTATATATGCACACAAAATATGTTCATAT [CACACA_site9350]", "gcPBM binding intensity (ln)", 7.13],
  ["TAATTAGCATAATACACATGCATACATTTATATATA [TGCATGCA_site542]", "gcPBM binding intensity (ln)", 7.01],
  ["CAAATAATATTATGAAGTACTTCAAATTTTGAAAGA [XGTACX_site2530]", "gcPBM binding intensity (ln)", 6.98],
  ["ATCAAAATTGTCATTACACACCTTTATTTTTATAAT [CACACA_site5071]", "gcPBM binding intensity (ln)", 7.12],
  ["TTCTTAAAAGGAAAGGTGCAACTTTATCATTTTCTT", "gcPBM binding intensity (ln)", 10.9],
  ["TTTATTTGTTCATGCGTGCACTTGATAACAATGTAC [GTGCAC_site9561]", "gcPBM binding intensity (ln)", 9.9]
]}

Each recorded value in this set is attributed to the supplement of paper PMC11417369.
